tested on: KRas-mediated phosphorylation of ERK in MKN1 cells; experiment: Inhibition of KRas-mediated phosphorylation of ERK (Cisbio HTRF pERK), MKN1 cells; type: cell-based; conditions: Homo sapiens, MKN-1
Mark TRUE only for IC50 values smaller than 7 nM; exact matches and larger values are FALSE.

{"compound": "C/C=C1\\CN2CCCC2(COc2nc(N3C[C@@H]4C[C@H](C3)[C@H](O)C4)c3cnc(-c4cc(O)cc5ccc(F)c(CC)c45)c(F)c3n2)C1 (stereo partly shown)", "assigned class": "TRUE"}
{"compound": "CCc1c(F)ccc2cc(O)cc(-c3ncc4c(NCc5cc(C(=O)N(C)C)nn5C5COC5)nc(OC[C@@]56CCCN5C[C@H](F)C6)nc4c3F)c12", "assigned class": "FALSE"}
{"compound": "CCc1c(F)ccc2cc(O)cc(-c3ncc4c(N5C[C@@H]6C[C@H](C5)[C@H](O)C6)nc(OCC56CCCN5CC5(CC5)C6)nc4c3F)c12 (stereo partly shown)", "assigned class": "TRUE"}
{"compound": "CN(C)C(=O)c1cc2n(n1)CCCN(c1nc(OC[C@@]34CCCN3C[C@H](F)C4)nc3c(F)c(-c4c5ccccc5cc5[nH]ncc45)ncc13)C2", "assigned class": "FALSE"}
{"compound": "CCc1c(F)ccc2cc(O)cc(-c3ncc4c(N5CC6CCC(C5)C65OCCO5)nc(OC[C@@]56CCCN5C[C@H](F)C6)nc4c3F)c12", "assigned class": "FALSE"}
{"compound": "CCOC[C@@H]1CC[C@]2(COc3nc(N4CCC[C@@](C)(O)C4)c4cnc(-c5cc(O)cc6ccc(F)c(CC)c56)c(F)c4n3)CCCN12", "assigned class": "TRUE"}
{"compound": "C#Cc1c(F)ccc2cc(O)cc(-c3ncc4c(N5CCC[C@@](C)(O)C5)nc(OC[C@]56CCCN5C/C(=C\\F)C6)nc4c3F)c12", "assigned class": "TRUE"}
{"compound": "CCc1c(F)ccc2cc(O)cc(-c3ncc4c(N5CC6CCC(C5)C6C(=O)N(C)C)nc(OC[C@@]56CCCN5C[C@H](F)C6)nc4c3F)c12 (stereo partly shown)", "assigned class": "TRUE"}
{"compound": "CCc1c(F)ccc2cc(O)cc(-c3ncc4c(N5C[C@H]6CC[C@@](C(=O)NC)(C5)C6(F)F)nc(OC[C@@]56CCCN5C[C@H](F)C6)nc4c3F)c12", "assigned class": "FALSE"}
{"compound": "CCc1c(F)ccc2cc(O)cc(-c3ncc4c(N5CC6CCC(COC(=O)N(C)C)(C6)C5)nc(OC[C@@]56CCCN5C[C@H](F)C6)nc4c3F)c12 (stereo partly shown)", "assigned class": "FALSE"}
{"compound": "CCNC(=O)OC[C@@H]1CC[C@]2(COc3nc(N4CCC[C@@](C)(O)C4)c4cnc(-c5cc(O)cc6ccc(F)c(CC)c56)c(F)c4n3)CCCN12", "assigned class": "TRUE"}
{"compound": "C=C1CN2CCCC2(COc2nc(N3CCCC4(CNS(=O)(=O)N4)C3)c3cnc(-c4cc(O)cc5ccc(F)c(CC)c45)c(F)c3n2)C1 (stereo not shown)", "assigned class": "TRUE"}
{"compound": "CCc1c(F)ccc2cc(O)cc(-c3ncc4c(N5CCCC6(CCS6)C5)nc(OC[C@@]56CCCN5C[C@H](F)C6)nc4c3F)c12 (stereo partly shown)", "assigned class": "FALSE"}
{"compound": "CCc1c(F)ccc2cc(O)cc(-c3ncc4c(N5C[C@@H]6C[C@H](C5)[C@H](O)C6)nc(OC[C@@H]5CC[C@H]6COCCN65)nc4c3F)c12", "assigned class": "TRUE"}
{"compound": "CCc1c(F)ccc2cc(O)cc(-c3ncc4c(N5C[C@H]6C[C@@H](C5)[C@H](O)[C@H]6O)nc(OC[C@@]56CCCN5C[C@H](F)C6)nc4c3F)c12 (single isomer, unassigned)", "assigned class": "FALSE"}
{"compound": "O=S1(=O)CCC2(CCCN(c3nc(OC[C@@]45CCCN4C[C@H](F)C5)nc4c(F)c(-c5cc(O)cc6ccc(F)c(Cl)c56)ncc34)C2)N1 (stereo partly shown)", "assigned class": "TRUE"}
{"compound": "CCc1c(F)ccc2cc(O)cc(-c3ncc4c(N5C[C@@H]6C[C@H](C5)[C@H](O)C6)nc(OC[C@@]56CCCN5C[C@@H](OC)C6)nc4c3F)c12", "assigned class": "FALSE"}
{"compound": "CCc1c(F)ccc2cc3[nH]ncc3c(-c3ncc4c(N5CCC[C@]6(C5)NC(=O)NC6=O)nc(OC[C@@]56CCCN5C[C@H](F)C6)nc4c3F)c12", "assigned class": "FALSE"}
{"compound": "CCc1c(F)ccc2c(Br)c(O)cc(-c3ncc4c(N5C[C@@H]6C[C@H](C5)[C@H](O)C6)nc(OC[C@@]56CCCN5C[C@H](F)C6)nc4c3F)c12", "assigned class": "FALSE"}
{"compound": "CCc1c(F)ccc2cc(O)cc(-c3ncc4c(N[C@@H](C)c5cc(C(=O)N(C)C)nn5C)nc(OC[C@@]56CCCN5C[C@H](F)C6)nc4c3F)c12", "assigned class": "FALSE"}
{"compound": "Oc1cc(-c2ncc3c(N4C[C@@H]5C[C@H](C4)[C@H](O)C5)nc(OC[C@@]45CCCN4C[C@H](F)C5)nc3c2F)c2ccccc2c1", "assigned class": "FALSE"}

Hello, the source for this data is patent US20260015350A1, in case you need it.
